Assay: BSK_4H_SRB: Viability Assessment in the BioMAP Diversity Plus: 4H Assay (AID 2283027);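 note: cells exposed to compound for 24 h before staining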;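 for AC50: curves fitted both ways versus DMSO so AC50 may be loss or gain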
Conditions: primary human endothelial cells (HUVEC)
Activity calls are given as the source filed them. Rule for the calls: active = hit-call score of the fitted dose curve at least 0.9, where 1 is the maximum; inactive = score below 0.9.
Property name: AC50

- Molecule: "Cc1cc(C)nc(Nc2ccccc2)n1"
  AC50: "inactive"
- Molecule: "CCOc1nc(C(Cl)(Cl)Cl)ns1"
  AC50: "inactive"
- Molecule: "COc1cc(OC)nc(NC(=O)NS(=O)(=O)c2ncccc2OCC(F)(F)F)n1"
  AC50: "inactive"
- Molecule: "CC(C)Oc1cccc(NC(=O)c2ccccc2C(F)(F)F)c1"
  AC50: "inactive"
- Molecule: "Cc1ccc(N=CN(C)C=Nc2ccc(C)cc2C)c(C)c1"
  AC50: "32.3 µM (active)"
- Molecule: "CN/C(=N\\[N+](=O)[O-])NCc1cnc(Cl)s1"
  AC50: "inactive"

Continue with the molecule presented below.
The reported AC50 of the molecule CCSC(=O)N1CCCCCC1 was inactive
